Could you please report measured CC50 for the items listed next?
# Tested on: HepG2
# method: Cytotoxicity against human HepG2 cells assessed as growth inhibition after 48 hrs by Alamar blue assay
# Assay type: cell-based
# applied_conditions: hepg2, 48 h
Numbers only; they are read as µM.

Can you look up CC50 on HepG2 for `CC(C)c1ccc(COc2ccc(N(CCN)C(=O)c3cccnc3Cl)cc2)cc1.Cl` ?
10.5

And for `CC(C)c1ccc(COc2ccc(N(CCN)C(=O)c3ccc(Cl)cc3Cl)cc2)cc1.Cl` ?
3.19

And for `NCCN(C(=O)c1c(Cl)cc(Cl)cc1Cl)c1ccc(Cl)cc1` ?
21.5

And for `Cc1cc(C)cc(COc2ccc(N(CCN)C(=O)c3ccc(F)cc3C(F)(F)F)cc2)c1` ?
4.53

And for `CC(C)c1ccc(COc2ccc(N(CCN)C(=O)c3cccnc3C(F)(F)F)cc2)cc1.Cl` ?
3.83
